Target: other protein kinases (each individual kinase)
Assay comment: Standardized radiometric kinase assays, IC50 over 10 drug concentrations
Format: biochemical
Stated conditions: Pim-3(h); estimated
Measured metric: IC50 (nM)
Write the value in nM as a bare number.

What value of measured IC50 is listed for Clc1ccccc1Nc1nc2c(-c3nnc[nH]3)cccc2c2cnccc12 ?
86

----------
Target: recombinant human PIM1 (Homo sapiens (Human), UniProt P11309)
Sequence (P11309 whole entry): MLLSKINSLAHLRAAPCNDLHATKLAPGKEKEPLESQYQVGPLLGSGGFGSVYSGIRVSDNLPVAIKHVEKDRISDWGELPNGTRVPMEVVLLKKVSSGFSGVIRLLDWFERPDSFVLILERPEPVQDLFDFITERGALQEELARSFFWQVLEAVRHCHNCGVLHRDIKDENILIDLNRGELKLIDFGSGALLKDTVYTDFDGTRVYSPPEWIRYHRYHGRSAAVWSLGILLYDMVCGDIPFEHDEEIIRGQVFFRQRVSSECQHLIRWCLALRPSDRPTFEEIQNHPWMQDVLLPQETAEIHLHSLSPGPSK
Assay comment: PIM-1 kinase activity in cell-free in vitro assay
Assay type: biochemical
Stated conditions: 500 nM compound, cell-free assay; read-out: PIM-1: % inh 500 nM
This section presents compounds with their documented inhibition at 0.5 µM values.
Write the value in % as a bare number.

As a guide, the following entries are already answered.
Nc1ncc2c(n1)c(Nc1ccc(F)c(Cl)c1)nc1cc(C(=O)O)ccc12 :: 38.8
CN(C)CCNc1nc2cc(C(N)=O)ccc2c2sccc12 :: 34

Moving on to the next compound.
What value of measured inhibition at 0.5 µM is listed for O=C(O)c1cccc2c1nc(Nc1ccccc1)c1ccncc12 [drawing 2004] ?
-77.4
